Source: patent US8563714B2

# test system: human FPRL2 (Homo sapiens, UniProt P25089)
# Sequence (P25089 whole entry): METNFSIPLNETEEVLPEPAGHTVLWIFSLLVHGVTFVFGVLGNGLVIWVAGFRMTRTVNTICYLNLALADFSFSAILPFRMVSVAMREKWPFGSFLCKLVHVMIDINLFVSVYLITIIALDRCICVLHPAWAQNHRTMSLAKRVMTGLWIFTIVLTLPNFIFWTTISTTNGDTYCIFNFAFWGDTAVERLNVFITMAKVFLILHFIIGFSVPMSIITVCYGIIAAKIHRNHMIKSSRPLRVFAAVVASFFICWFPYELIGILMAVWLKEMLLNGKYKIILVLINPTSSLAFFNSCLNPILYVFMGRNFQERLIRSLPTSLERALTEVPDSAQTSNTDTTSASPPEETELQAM
# assay notes: Intracellular calcium measurements (FLIPR), agonistic activity in HEK293-hFPRL2-Gα16 cells
# measurement context: Fluo-4 calcium FLIPR, normalized to GLY14-Humanin 100 nM
# Experimental: The ALX receptor and FPRL2 agonistic activities of the compounds of formula (I) are determined in accordance with the following experimental method. Intracellular Calcium Measurements: Cells expressing recombinant human FPRL2 and the G-protein Gα16 (HEK293-hFPRL2-Gα16) were grown to 80% confluency in Growing Medium (GM). […] Changes in fluorescence were monitored before and after the addition of test compounds at lex=488 nm and lem=540 nm. […]
One threshold, 30 nM, splits the recorded EC50 values: lower ones are true, equal or higher ones are false.

Request: Is it true that EC50 reported for O=C(NCCCCN1CCCC1)[C@H]1[C@H](C(=O)NCc2cccc(C(F)(F)F)c2F)[C@@H]2C=C[C@H]1C21CC1 (racemic) is less than 30 nM?
Result: false

Request: Is it true that EC50 reported for O=C(NCCCCN1CCCC1)[C@H]1[C@H](C(=O)NCc2ccc(Br)c(F)c2)[C@@H]2C=C[C@H]1C21CC1 is less than 30 nM?
Result: true

Request: Is it true that EC50 reported for O=C(NCCF)[C@H]1[C@H](C(=O)Nc2ncc(Br)s2)[C@@H]2C=C[C@H]1C21CC1 (racemic) is less than 30 nM?
Result: false

Request: Is it true that EC50 reported for Cc1cc(C(=O)N(C)C[C@H]2[C@H](C(=O)Nc3ccc(Br)cc3)[C@@H]3C=C[C@H]2C32CC2)nn1C (racemic) is less than 30 nM?
Result: false

Request: Is it true that EC50 reported for CC(=O)c1ncc(CNC(=O)[C@H]2[C@H](C(=O)NCCCCN3CCCC3)[C@H]3C=C[C@@H]2C32CC2)s1 (racemic) is less than 30 nM?
Result: false

Request: Is it true that EC50 reported for O=C(NCCCCN1CCCC1)[C@H]1[C@H](C(=O)Nc2ccc(Br)c(F)c2)[C@@H]2C=C[C@H]1C21CC1 is less than 30 nM?
Result: false
